- Assayed target: GST-MERTK 578-872 (Homo sapiens (Human), UniProt Q12866)
- Sequence (Q12866 578-872): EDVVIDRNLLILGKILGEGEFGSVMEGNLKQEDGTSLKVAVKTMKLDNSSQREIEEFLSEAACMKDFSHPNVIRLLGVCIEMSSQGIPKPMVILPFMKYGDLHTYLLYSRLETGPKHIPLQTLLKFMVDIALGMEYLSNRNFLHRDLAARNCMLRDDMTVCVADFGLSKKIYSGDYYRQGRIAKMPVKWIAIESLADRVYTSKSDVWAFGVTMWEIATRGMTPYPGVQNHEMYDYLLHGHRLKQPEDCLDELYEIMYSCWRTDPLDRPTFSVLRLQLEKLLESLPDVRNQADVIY
IC50 strictly less than 40 nM = Satisfied. Otherwise Not satisfied.

Take the compound "CC(C)n1cc(C(=O)Nc2ccc(Oc3ccnc(Nc4ccc(S(=O)(=O)N(C)C)c(N(C)C)n4)c3)c(F)c2)c(=O)n(-c2ccc(F)cc2)c1=O" and say whether its IC50 is less than 40 nM.
Satisfied

Take the compound "COC(=O)N1CCN(c2nc(Nc3cc(Oc4ccc(NC(=O)c5cn(C(C)C)c(=O)n(Cc6ccccc6)c5=O)cc4F)ccn3)ccc2C#N)CC1" and say whether its IC50 is less than 40 nM.
Satisfied

Take the compound "CC(C)n1cc(C(=O)Nc2ccc(Oc3ccnc(Nc4ccc(S(=O)(=O)N(C)C)cn4)c3)c(F)c2)c(=O)n(Cc2ccncc2)c1=O" and say whether its IC50 is less than 40 nM.
Not satisfied

Take the compound "CC(C)n1cc(C(=O)Nc2ccc(Oc3ccnc(Nc4ccc(S(=O)(=O)N5CCCCC5)cn4)c3)c(F)c2)c(=O)n(-c2ccc(F)cc2)c1=O" and say whether its IC50 is less than 40 nM.
Satisfied

Take the compound "CC(C)n1cc(C(=O)Nc2ccc(Oc3ccnc(Nc4ccc(C(C)(C)O)cn4)c3)c(F)c2)c(=O)n(-c2ccc(F)cc2)c1=O" and say whether its IC50 is less than 40 nM.
Satisfied

Others:
Take the compound "CCOc1cnc(Nc2cc(Oc3ccc(NC(=O)c4cn(C(C)C)c(=O)n(-c5ccc(F)cc5)c4=O)cc3F)ccn2)cn1" and say whether its IC50 is less than 40 nM.
Not satisfied

Take the compound "CC(C)n1cc(C(=O)Nc2ccc(Oc3ccnc(Nc4ccc(S(=O)(=O)N(C)C)cn4)c3)c(F)c2)c(=O)n(-c2cccc(C(F)(F)F)c2)c1=O" and say whether its IC50 is less than 40 nM.
Not satisfied

Take the compound "CC(C)n1cc(C(=O)Nc2ccc(Oc3ccnc(Nc4ccc(S(C)(=O)=O)cn4)c3)c(F)c2)c(=O)n(-c2ccc(F)cn2)c1=O" and say whether its IC50 is less than 40 nM.
Satisfied
